Answer each item with its documented amyloid nucleation score.
Assay: amyloid nucleation score (Sup35N fusion, yeast selection) (log enrichment); library NNK2; higher = more nucleation; inactive = no reads after selection;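 note: zero at mode of non-aggregating sequences after 7 days selection at 30°C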
One number for each entry.

Examples with answers:
* SSTFPPF | -0.691
* NPVINT | -0.271

Provide amyloid nucleation score for all items below, preserving their order.
1. HNYVINESFFFLVVVYVDAG
2. RTYWGRKLNCVQF
3. IMTDPRSSLSLWCLNLSVNG
4. YDKSYFVFFNP
5. CIMMYVT
6. IRLVMWCYHQNDCVVFSSLH

stdout:
1. 7.6
2. 6.72
3. 4.88
4. 1.36
5. 0.259
6. 1.94
